Test system: OVCAR-8 ovarian
Experiment: NCI-60 one-dose screen, 48 h
Details: 10 µM unless noted
The panel holds about 83,000 compounds, 20% with a hit somewhere; the sample as a whole holds those more often. Active and inactive are the calls of the source. Rule for the calls: active = growth percent below 10; inactive = the rest.
Can you answer with just one of these options? 1 (yes) = active, 0 (no) = inactive

Reference set (3 entries):
>  <COMPOUND>
CC(=O)N(C)C1=Nc2ccc(Cl)cc2C(c2ccccc2)=[N+]([O-])C1

>  <LABEL_CLASS>
0 (no)

$$$$
>  <COMPOUND>
CCOc1cc(/C=N\Nc2nnc(C)n2N)c(C)cc1N(CCCl)CCCl

>  <LABEL_CLASS>
0 (no)

$$$$
>  <COMPOUND>
CC(=O)O[C@H]1CCC2(C)C(=CCC3C2CCC2(C)/C(=N/OC(=O)c4ccc(N(CCCl)CCCl)cc4)CCC32)C1 (stereo partly drawn)

>  <LABEL_CLASS>
0 (no)

$$$$

Field: next compound
For O=C1NC(=O)C(=Cc2cn(Cc3ccccc3)c3ccccc23)C(=O)N1 , which call appears in the assay record?
0 (no)

====

System: UO-31 renal
Experiment: NCI-60 one-dose screen, 48 h (100 = growth as untreated, 0 = no growth, -100 = all killed)
Details: 10 µM unless noted
About 83,000 compounds went through this panel and 20% of them were active in at least one assay; those are over-represented in the sample as a whole. The source made the active and inactive calls. How the source made its calls: active means growth percent below 10; inactive means the rest.
In this section, each of the compounds is paired with its reported growth.

These solved cases illustrate the format of a correct answer.
>  <COMPOUND>
COc1cc(/C=C\c2cc(OC)c(OC)c(OC)c2)cc(N/C=C\C(=O)c2ccc(OC(F)(F)F)cc2)c1OC

>  <growth>
32.9% (inactive)

$$$$
>  <COMPOUND>
C[C@]12CC[C@H](OC3OC(O)C(O)C(O)C3O)C=C1CCC1C2CC[C@]2(C)[C@@H](c3ccc(=O)oc3)CC[C@]12O (some centres not stated)

>  <growth>
-92.3% (active)

$$$$
>  <COMPOUND>
CC(=O)O[C@H]1C[C@H](O[C@H]2[C@@H](O)C[C@H](O[C@H]3[C@@H](O)C[C@H](O[C@H]4CC[C@@]5(C)C(CCC6C5C[C@@H](O)[C@]5(C)[C@@H](C7=CC(=O)OC7)CC[C@]65O)C4)O[C@@H]3C)O[C@@H]2C)O[C@H](C)[C@H]1O[C@@H]1O[C@H](CO)[C@@H](O)[C@H](O)[C@H]1O (some centres not stated)

>  <growth>
-80.1% (active)

$$$$
>  <COMPOUND>
Oc1c(Br)cc(Br)cc1Br.[Cu+2]

>  <growth>
81.2% (inactive)

$$$$
>  <COMPOUND>
CC(=O)[O][Hg][c]1ccccc1

>  <growth>
-94.2% (active)

$$$$

Now consider a different compound.
Input CNC(=O)Oc1cc(C(C)C)ccc1Sc1ccc(C(C)C)cc1OC(=O)NC , output reported growth.
65.7% (inactive)

====

Parameter growth: see the listing below.
Test system: UACC-62 melanoma
Experiment: NCI-60 one-dose screen, 48 h (100 = growth as untreated, 0 = no growth, -100 = all killed)
Conditions: 10 µM unless noted
About 83,000 compounds went through this panel and 20% of them were active in at least one assay; those are over-represented in the sample as a whole. Calls of active or inactive are those of the source. How the source made its calls: active means growth percent below 10; inactive means the rest.

>  <COMPOUND>
O=CC(Br)C(Br)c1ccccc1 (stereo unspecified)

>  <ASSAYED_TARGET>
UACC-62 melanoma

>  <growth>
87.4% (inactive)

$$$$

Given CC(=O)C1CCC2C3CC=C4CC(OC(=O)Cc5ccc(N(CCCl)CCCl)cc5)CCC4(C)C3CCC12C (stereo unspecified) , respond with its growth.
91.4% (inactive)

Consider the compound NC(=O)CN1C(=O)C(Cc2ccccc2)N=C(c2cccc(O)c2)c2ccccc21 (stereo unspecified) . State its measured growth.
97.8% [30 µM] (inactive)

Complete the entry with growth for O=S(=O)(O)c1ccc(-c2ccc([As](=O)(O)O)cc2)cc1
98% (inactive)
